Every entry's value here was drawn from ChEMBL document CHEMBL2218924.

- system name: Calcium/calmodulin-dependent protein kinase type IV (Homo sapiens) (UniProt Q16566)
- Sequence (Q16566 whole entry): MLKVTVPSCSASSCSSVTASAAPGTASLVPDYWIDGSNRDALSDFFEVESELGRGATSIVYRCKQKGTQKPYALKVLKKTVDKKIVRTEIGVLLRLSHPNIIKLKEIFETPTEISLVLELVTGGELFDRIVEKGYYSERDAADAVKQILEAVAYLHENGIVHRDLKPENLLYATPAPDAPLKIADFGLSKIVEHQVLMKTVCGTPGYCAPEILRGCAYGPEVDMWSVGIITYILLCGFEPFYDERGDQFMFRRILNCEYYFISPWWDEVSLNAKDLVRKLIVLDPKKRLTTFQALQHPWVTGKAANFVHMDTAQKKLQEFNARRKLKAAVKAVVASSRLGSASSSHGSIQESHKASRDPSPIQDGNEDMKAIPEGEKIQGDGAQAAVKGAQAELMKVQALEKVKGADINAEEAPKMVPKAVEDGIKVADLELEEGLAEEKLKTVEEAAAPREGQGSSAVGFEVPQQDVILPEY
- conditions: at 1 µM
Quick reference for residual activity among some compounds
Report only the number, with the unit % understood.

Sample records with residual activity:
* c1ccc(-c2n[nH]cc2-c2ccnc3ccccc23)nc1 | 139
* CC(C)n1cnc2c(NCc3ccccc3)nc(NCCCO)nc21 | 112
* CO[C@H]1[C@@H](OC)C[C@H](C)[C@@H](OC)C2=CC(=O)C=C(NC(=O)/C(C)=C/C=C/[C@H](OC)[C@@H](OC(N)=O)/C(C)=C/[C@@H]1C)C2=O | 89
* N#C/C(=C(\N)Sc1ccc(N)cc1)c1ccccc1C(F)(F)F | 107
* Oc1ccc(-c2nc(-c3ccc(F)cc3)c(-c3ccncc3)[nH]2)cc1 | 115
* O=[N+]([O-])c1ccc(-c2nc(-c3ccc(F)cc3)c(-c3ccncc3)[nH]2)cc1 | 101
* Nc1ccc2ncnc(NCCc3ccc(Oc4ccccc4)cc3)c2c1 | 108
* O=C(O)c1ccc2c3c1cccc3c(=O)n1c3ccccc3nc21 | 94
* CC(C)n1cnc2/c(=N/c3cccc(Cl)c3)nc(NCCO)[nH]c21 | 103
* CCC(=O)Nc1ccc2ncnc(Nc3cccc(Br)c3)c2c1 | 123

The reported value for Cc1nc2cc3nc(-c4cccs4)cnc3cc2n1C in terms of residual activity is 129

Memo: CCN(CC)CCCCN1c2ccccc2Oc2ccc(Cl)cc21 , reported residual activity: 126

Entry under test: Cc1ccc(NC2=CC(=O)c3sc(C)nc3C2=O)cc1 . Its residual activity was 113

The reported value for COc1cc2ncnc(Nc3ccc(Oc4ccccc4)cc3)c2cc1OC in terms of residual activity is 103

The reported residual activity of the compound Cc1cc(Nc2nc(-c3ccccc3)nc3ccccc23)n[nH]1 was 47
